src = patent US7667036B2

Biological target: MAPKAP-K2 (Homo sapiens, UniProt P49137)
Sequence (P49137 whole entry): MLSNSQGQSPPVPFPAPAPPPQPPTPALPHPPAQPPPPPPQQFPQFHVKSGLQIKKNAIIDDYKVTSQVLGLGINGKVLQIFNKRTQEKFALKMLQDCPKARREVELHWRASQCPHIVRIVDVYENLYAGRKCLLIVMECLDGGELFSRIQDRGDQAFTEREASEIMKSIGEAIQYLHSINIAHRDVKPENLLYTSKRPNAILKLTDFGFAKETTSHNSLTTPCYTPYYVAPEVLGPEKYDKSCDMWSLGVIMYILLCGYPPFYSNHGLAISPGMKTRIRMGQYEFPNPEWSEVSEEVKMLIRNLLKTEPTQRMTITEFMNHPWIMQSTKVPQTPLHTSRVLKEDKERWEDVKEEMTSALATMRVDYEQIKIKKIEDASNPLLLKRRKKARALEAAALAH
Assay: MAPKAP-K2 enzyme activity inhibition assay, Method B (33P-ATP, MultiScreen-PH plate)
Format: biochemical
Conditions: recombinant human MAPKAP-K2, 0.5% DMSO, 30 min room temperature, read-out: Inhibitory activity (MAPKAP-K2 IC50 class)
pIC50: −log10 of the molar value.
measure: pIC50

Study these solved cases before continuing.
CCOc1ccc(Nc2c(C)c(O[C@@H]3CC[C@@H](C)NC3)nc3ccnn23)cc1    4.70 to 5.70
CC(=O)c1ccc(-c2ccc(Nc3c(C)c(O[C@H]4CC[C@@H](N)CC4)nc4ccnn34)cc2)s1    ≥ 5.70
COc1ccc(Cl)cc1Nc1c(C)c(O[C@H]2CC[C@@H](N)CC2)nc2ccnn12    4.70 to 5.70

For the 7 compounds below, give their pIC50 values.
1. COc1ccc(Nc2ccc(Nc3c(C)c(OC4CCCNC4)nc4ccnn34)cc2)cc1 (stereo not shown)
2. Cc1c(OC2CCCNC2)nc2ccnn2c1Nc1ccc(C(=O)c2ccccc2)cc1 (stereo not shown)
3. Cc1c(O[C@H]2CC[C@@H](N)CC2)nc2ccnn2c1Nc1cc(F)c(C#N)cc1F
4. CCOc1ccc(Nc2c(C)c(OC3CNCCC3CO)nc3ccnn23)cc1 (stereo not shown)
5. Cc1c(OCCN)nc2ccnn2c1NCc1ccccc1
6. CCC[C@@H]1CCNC[C@H]1Oc1nc2ccnn2c(Nc2ccc(OCC)cc2)c1C (racemic)
7. CCOc1ccc(Nc2c(C)c(OCC(C)N)nc3ccnn23)cc1 (stereo not shown)

Response:
["≥ 5.70", "4.70 to 5.70", "4.70 to 5.70", "4.70 to 5.70", "4.00 to 4.70", "4.70 to 5.70", "4.00 to 4.70"]
